# inhibition at 0.5 µg/mL per record follows
System: SRS-A
Assay: SRS-A antagonism in guinea-pig ileum (SRS-A-induced contraction)
Type: cell-based
Experimental conditions: Cavia porcellus, 1 min, test compound 5×10^-7 g/ml, isolated guinea-pig ileum
The answer is to be given in %; state only the numeric part.

COCCNC(=O)c1ccc(CNc2cnn(C(C)(C)C)c(=O)c2Cl)cc1	12
CC(C)c1ccc(CNc2cnn(C(C)(C)C)c(=O)c2Cl)cc1	74
CCN(CC)C(=O)c1ccc(CNc2cnn(C(C)(C)C)c(=O)c2Cl)cc1	31
COc1ccc(CNc2cnn(C(C)(C)C)c(=O)c2Cl)cc1	72
CC(C)(C)n1ncc(NCc2ccc(Cl)cc2)c(Cl)c1=O	76

Request: Please report the recorded inhibition at 0.5 µg/mL for CC(C)(C)n1ncc(NCc2ccc(N3CCOCC3)cc2)c(Cl)c1=O .
Response: 53

Request: Can you handle CN1CCN(C(=O)c2ccc(CNc3cnn(C(C)(C)C)c(=O)c3Cl)cc2)CC1 next?
Response: 15

Request: Record: CC(C)(C)n1ncc(NCc2ccccc2)c(Cl)c1=O
Response: 14

Request: Let us now turn to CCN(CC)Cc1ccc(CNc2cnn(C(C)(C)C)c(=O)c2Cl)cc1
Response: 18
